As shown below, each of these binders has a reported kon value.
Biological target: T1, rat IL-25 expressed with a C-terminal myc-myc-hexahistidine tag (rat)
T1 construct: also called Rat IL-25-MMH
T1 chain: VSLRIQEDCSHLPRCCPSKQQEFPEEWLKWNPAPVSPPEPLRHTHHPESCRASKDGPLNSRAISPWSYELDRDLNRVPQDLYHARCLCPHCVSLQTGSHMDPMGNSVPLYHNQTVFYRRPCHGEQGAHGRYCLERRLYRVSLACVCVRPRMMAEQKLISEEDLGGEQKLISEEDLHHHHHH
Test: SPR Biacore, antibody captured, 25C;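 note: purified anti-IL-25 antibodies were tested by real-time surface plasmon resonance on a Biacore 4000, with rate constants obtained from sensorgram fits to a 1:1 binding model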
Please respond with the number in M⁻¹ s⁻¹ and leave the unit unwritten.

1) H4H10863P (antibody, human IgG4, V domains shown, H4H prefix = human IgG4 Fc) VH: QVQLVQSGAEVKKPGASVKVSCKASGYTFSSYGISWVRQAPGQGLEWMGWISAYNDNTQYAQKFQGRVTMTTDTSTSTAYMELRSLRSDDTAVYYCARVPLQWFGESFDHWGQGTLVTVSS VL: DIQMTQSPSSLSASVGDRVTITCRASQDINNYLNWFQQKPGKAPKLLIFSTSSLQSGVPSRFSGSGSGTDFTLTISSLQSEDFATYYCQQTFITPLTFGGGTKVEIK | 153000
2) H4H10905P (antibody, human IgG4, V domains shown, H4H prefix = human IgG4 Fc) VH: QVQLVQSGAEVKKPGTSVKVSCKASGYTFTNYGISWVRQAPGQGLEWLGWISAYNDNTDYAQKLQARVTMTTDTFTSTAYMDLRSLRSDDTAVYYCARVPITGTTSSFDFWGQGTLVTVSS VL: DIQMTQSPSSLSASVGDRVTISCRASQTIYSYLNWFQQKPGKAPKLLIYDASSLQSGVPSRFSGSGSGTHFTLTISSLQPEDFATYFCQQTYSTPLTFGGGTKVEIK | 167000

Shifting focus to the binder that follows.
Look at this binder and give its reported kon. H4H10907P (antibody, human IgG4, V domains shown, H4H prefix = human IgG4 Fc) VH: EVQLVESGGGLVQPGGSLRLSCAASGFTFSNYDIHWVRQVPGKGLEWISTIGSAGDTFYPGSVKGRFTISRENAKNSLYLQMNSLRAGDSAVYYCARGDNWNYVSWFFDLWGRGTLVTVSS VL: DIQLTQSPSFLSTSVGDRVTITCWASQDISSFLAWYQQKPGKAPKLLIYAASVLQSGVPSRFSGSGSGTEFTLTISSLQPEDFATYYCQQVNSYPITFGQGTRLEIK 220000
